- tested_target: Nitric oxide synthase, inducible (Mus musculus, UniProt P29477)
- Sequence (P29477 whole entry): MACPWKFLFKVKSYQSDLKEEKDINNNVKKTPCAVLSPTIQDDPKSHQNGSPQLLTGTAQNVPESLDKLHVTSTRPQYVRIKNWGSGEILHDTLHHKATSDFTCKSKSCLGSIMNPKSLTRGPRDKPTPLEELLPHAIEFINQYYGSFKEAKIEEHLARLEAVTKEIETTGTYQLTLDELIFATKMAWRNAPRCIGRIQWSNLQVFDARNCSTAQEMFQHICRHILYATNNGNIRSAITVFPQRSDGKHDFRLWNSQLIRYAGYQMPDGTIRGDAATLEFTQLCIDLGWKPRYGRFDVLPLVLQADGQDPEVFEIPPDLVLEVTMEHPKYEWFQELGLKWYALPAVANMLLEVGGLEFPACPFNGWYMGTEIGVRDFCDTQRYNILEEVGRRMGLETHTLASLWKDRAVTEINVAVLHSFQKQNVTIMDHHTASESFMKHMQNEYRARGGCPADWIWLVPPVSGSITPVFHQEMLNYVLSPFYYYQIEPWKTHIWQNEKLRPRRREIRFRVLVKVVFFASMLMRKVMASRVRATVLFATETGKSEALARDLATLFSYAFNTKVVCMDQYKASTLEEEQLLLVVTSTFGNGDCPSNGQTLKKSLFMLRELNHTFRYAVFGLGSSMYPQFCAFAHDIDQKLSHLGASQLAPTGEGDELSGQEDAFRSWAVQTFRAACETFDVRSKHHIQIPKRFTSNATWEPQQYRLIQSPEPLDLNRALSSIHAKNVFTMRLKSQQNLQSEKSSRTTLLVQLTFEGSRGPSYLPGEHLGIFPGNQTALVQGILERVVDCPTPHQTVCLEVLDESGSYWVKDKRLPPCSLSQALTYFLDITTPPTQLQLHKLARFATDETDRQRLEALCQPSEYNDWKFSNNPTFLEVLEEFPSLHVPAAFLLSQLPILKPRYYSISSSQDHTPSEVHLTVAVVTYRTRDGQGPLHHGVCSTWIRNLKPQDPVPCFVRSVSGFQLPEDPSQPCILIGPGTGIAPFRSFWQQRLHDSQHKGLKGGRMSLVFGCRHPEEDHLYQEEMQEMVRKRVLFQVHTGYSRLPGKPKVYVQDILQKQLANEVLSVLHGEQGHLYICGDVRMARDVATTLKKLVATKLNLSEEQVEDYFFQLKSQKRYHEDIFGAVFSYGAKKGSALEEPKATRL
- assay_remarks: Inhibition of iNOS-mediated nitric oxide production in LPS-stimulated mouse BV2 cells measured after 24 hrs of post-stimulation by Griess reaction method
pIC50: −log10 of the molar value.
Rule: pIC50 of 5 or more gives 1 (yes); anything lower gives 0 (no).

Here's what some known entries look like.
* COc1ccc(/C=C/C(=O)c2cc(C(=O)/C=C/c3ccc(OC)cc3)c(O)cc2O)cc1 | 0 (no)
* O=C(/C=C/c1ccccc1)c1cc(C(=O)/C=C/c2ccccc2)c(O)cc1O | 1 (yes)
* COc1ccc(/C=C/C(=O)c2cc(C(=O)/C=C/c3ccc(OC)c(OC)c3OC)c(O)cc2O)c(OC)c1OC | 1 (yes)
* O=C(/C=C/c1ccco1)c1cc(C(=O)/C=C/c2ccco2)c(O)cc1O | 1 (yes)

// inclusive: pIC50 at least 5? input: COc1ccc(/C=C/C(=O)c2cc(C(=O)/C=C/c3ccc(OC)c(OC)c3)c(O)cc2O)cc1OC 1 (yes)

###

- tested_target: Nitric oxide synthase, inducible (Mus musculus, UniProt P29477)
- assay_remarks: Inhibition of iNOS-mediated nitric oxide production in LPS-stimulated mouse BV2 cells measured after 24 hrs of post-stimulation by Griess reaction method
Returns: string. Value is TRUE if measured IC50 is below 40 µM, and FALSE if it is greater than or equal to it.

// below: answered compounds
* CC(=O)c1cc(C(=O)C=Cc2ccc3c(c2)OCO3)c(O)cc1O | TRUE
* COc1cccc(/C=C/C(=O)c2cc(C(=O)/C=C/c3cccc(OC)c3OC)c(O)cc2O)c1OC | TRUE
* COc1ccc(OC)c(/C=C/C(=O)c2cc(C(=O)/C=C/c3cc(OC)ccc3OC)c(O)cc2O)c1 | TRUE
* Cc1ccc(/C=C/C(=O)c2cc(C(=O)/C=C/c3ccc(C)o3)c(O)cc2O)o1 | TRUE

Please look at the following compound next.
Please state whether IC50 is below 40 µM for Cc1ccsc1/C=C/C(=O)c1cc(C(=O)/C=C/c2sccc2C)c(O)cc1O FALSE
